FYI, the data here is from ChEMBL document CHEMBL3600292.

Each entry below carries its reported CC50.
experimental.details: Cytotoxicity against human MT4 cells by MTT assay in presence of 5 uM of chloroquine
Format: cell-based
Residues, ends and D or L forms follow the SMILES beside them. *: point of attachment. Cam = NC(=O)C*

molecule | CC50
COC[C@@H](c1ccc(C(F)(F)F)cc1)N1CCN(C2(C)CCN(C(=O)c3c(C)ncnc3C)CC2)C[C@@H]1C [VICRIVIROC] | > 5 µM
Cc1cn([C@H]2C[C@H](N=[N+]=[N-])[C@@H](CO)O2)c(=O)[nH]c1=O [ZIDOVUDINE] | > 100 µM
CC[C@H](C)[C@H](NC(=O)[C@H](CCCNC(=N)N)NC(=O)[C@H](CCC(N)=O)NC(=O)[C@H](Cc1cnc[nH]1)NC(=O)[C@@H](NC(=O)[C@H](CO)NC(=O)[C@H](Cc1ccc(O)cc1)NC(=O)[C@H](CC(C)C)NC(=O)[C@@H](NC(=O)[C@H](C)NC(=O)[C@@H](NC(=O)[C@@H](NC(C)=O)[C@@H](C)O)[C@@H](C)CC)C(C)C)C(C)C)C(=O)N[C@@H](CC(=O)O)C(=O)N[C@H](C(=O)N[C@@H](CCCCN)C(=O)NCC(=O)N[C@@H](CSCC(N)=O)C(N)=O)C(C)C (Ac-TIAVLYSVHQRIDVKGC(Cam)-NH2) | 47 µM
c1cc(CN2CCCNCCNCCCNCC2)ccc1CN1CCCNCCNCCCNCC1 [PLERIXAFOR] | > 50 µM
